TESTED TARGET: T1, CEACAM1 antigen (Sino Biological, Inc.) (UniProt P13688 35-428)
T1 construct: Bought antigen, coated on the ELISA plate; construct not described; also called CEACAM1 (CD66a) antigen; CD66a
T1 sequence (looked up): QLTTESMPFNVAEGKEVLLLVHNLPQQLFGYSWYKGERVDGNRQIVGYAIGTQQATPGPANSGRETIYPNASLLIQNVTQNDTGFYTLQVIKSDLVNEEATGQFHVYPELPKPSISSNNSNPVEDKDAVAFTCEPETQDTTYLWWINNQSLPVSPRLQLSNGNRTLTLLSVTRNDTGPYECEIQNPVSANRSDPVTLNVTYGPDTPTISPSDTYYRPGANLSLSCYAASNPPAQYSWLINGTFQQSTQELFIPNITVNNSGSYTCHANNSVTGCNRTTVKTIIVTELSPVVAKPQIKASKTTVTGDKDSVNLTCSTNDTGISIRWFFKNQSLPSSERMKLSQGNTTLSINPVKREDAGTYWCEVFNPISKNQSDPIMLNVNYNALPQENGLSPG
ASSAY REMARKS: ELISA, CEACAM1 coated 100 ng/well, antibody at 1111.11 ng/ml
OD 450 nm overview
MEASURE NAME: OD 450 nm (OD 450 nm)

- BINDER: "recombinant humanized anti-CD66c antibody Protein ID 3043 (Vk8 + VH6) (antibody, V domains shown, also called hu 3043; #71) VH: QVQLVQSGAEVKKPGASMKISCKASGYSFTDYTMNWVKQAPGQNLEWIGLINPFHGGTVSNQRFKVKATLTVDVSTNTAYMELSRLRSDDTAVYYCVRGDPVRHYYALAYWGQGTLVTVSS VL: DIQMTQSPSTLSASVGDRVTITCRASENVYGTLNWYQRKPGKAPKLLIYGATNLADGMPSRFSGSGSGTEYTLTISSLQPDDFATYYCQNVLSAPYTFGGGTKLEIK"
  REPORTED VALUE: 1.17
- BINDER: "anti-CD66c chimeric antibody 8F5 (antibody, human IgG1, V domains shown, also called chimeric 8F5; chi 8F5) VH: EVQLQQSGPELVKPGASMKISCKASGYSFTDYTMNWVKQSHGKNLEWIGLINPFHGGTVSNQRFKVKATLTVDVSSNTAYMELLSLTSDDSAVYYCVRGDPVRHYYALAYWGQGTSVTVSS VL: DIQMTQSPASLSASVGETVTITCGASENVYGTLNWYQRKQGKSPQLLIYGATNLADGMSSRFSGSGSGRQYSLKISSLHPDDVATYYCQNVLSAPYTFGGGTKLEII"
  REPORTED VALUE: 1.21
- BINDER: "recombinant humanized anti-CD66c antibody Protein ID 3007 (Vk7 + VH6) (antibody, human IgG1, V domains shown, also called hu 3007; #43) VH: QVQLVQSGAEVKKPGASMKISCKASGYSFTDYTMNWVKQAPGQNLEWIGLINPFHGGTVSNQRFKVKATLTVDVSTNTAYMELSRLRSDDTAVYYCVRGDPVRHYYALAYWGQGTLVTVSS VL: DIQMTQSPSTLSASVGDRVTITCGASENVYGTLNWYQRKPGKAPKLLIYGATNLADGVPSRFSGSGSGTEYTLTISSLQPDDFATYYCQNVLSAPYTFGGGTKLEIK"
  REPORTED VALUE: 1.06
- BINDER: "recombinant humanized anti-CD66c antibody Protein ID 2938 (Vk5 + VH7) (antibody, human IgG1, V domains shown, also called hu 2938) VH: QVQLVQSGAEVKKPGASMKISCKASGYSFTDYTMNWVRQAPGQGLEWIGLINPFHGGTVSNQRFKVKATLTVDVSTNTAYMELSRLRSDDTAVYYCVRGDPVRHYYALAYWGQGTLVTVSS VL: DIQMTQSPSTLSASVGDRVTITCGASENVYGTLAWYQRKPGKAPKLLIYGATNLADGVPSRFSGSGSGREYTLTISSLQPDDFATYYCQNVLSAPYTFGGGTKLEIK"
  REPORTED VALUE: 0.21
- BINDER: "recombinant humanized anti-CD66c antibody Protein ID 3058 (Vk8 + VH11) (antibody, human IgG1, V domains shown, also called hu 3058; #86) VH: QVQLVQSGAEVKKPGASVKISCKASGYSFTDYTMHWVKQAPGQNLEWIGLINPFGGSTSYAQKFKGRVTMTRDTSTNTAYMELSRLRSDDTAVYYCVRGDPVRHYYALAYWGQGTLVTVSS VL: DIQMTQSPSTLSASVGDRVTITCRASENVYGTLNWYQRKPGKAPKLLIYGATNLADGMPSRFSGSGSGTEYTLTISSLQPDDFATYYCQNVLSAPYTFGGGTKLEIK"
  REPORTED VALUE: 0.19
